Each recorded value in this set is attributed to paper PMC4550094.

System: HepG2 cells
Test Description: LipidTOX Red PLD assay, qHTS, 1536-well high-content imaging
Type: cell-based, Human
Cond: LOPAC primary qHTS, HepG2, 24 h; % of PLD induction by 19.16 µM amiodarone
Outcome Measure: Primary Screen Efficacy

> print(dat)
                                   compound          outcome.measure     val
1  CC(N)Cc1c[nH]c2ccc(OCc3cccs3)cc12 (stereo not drawn) [BW 723C86]  Primary Screen Efficacy   62.2%
2  NC(N)=NC(=O)c1nc(Cl)c(N2CCCCCC2)nc1N [5-(N,N-hexamethylene) amiloride]  Primary Screen Efficacy   52.8%
3  COc1cc2nc(N3CCN(C(=O)OCc4ccccc4)[C@H](C(=O)NC(C)(C)C)C3)nc(N)c2cc1OC [L-765,314]  Primary Screen Efficacy   54.1%
4  CC(C)[C@H]1c2ccc(F)cc2CC[C@@]1(CCN(C)CCCc1nc2ccccc2[nH]1)OC(=O)C1CC1 [NNC 55-0396]  Primary Screen Efficacy   91.6%
5  CN1CCN(c2nc3cc(C(F)(F)F)ccc3n3cccc23)CC1 [CGS-12066A]  Primary Screen Efficacy  103.7%
6  COc1ccc2c(c1)c(CCN1CCOCC1)c(C)n2C(=O)c1cccc(Cl)c1Cl [GW405833]  Primary Screen Efficacy   49.4%
7  CSc1ccc2c(c1)C(N1CCN(C)CC1)Cc1ccccc1S2 (stereo not drawn) [Methiothepin]  Primary Screen Efficacy   76.9%
8  CN1CCN(C2Cc3ccccc3Sc3ccc(Cl)cc32)CC1.O=C(O)/C=C\C(=O)O (stereo not drawn) [Octoclothepin]  Primary Screen Efficacy  135.0%
9  Cl.Cl.OCCN1CCN(CC/C=C2/c3ccccc3Sc3ccc(C(F)(F)F)cc32)CC1 [cis-(Z)-Flupenthixol]  Primary Screen Efficacy   37.3%
